- Protocol Notes: APR_HepG2_p53Act_72hr: Apredica 72-hour HepG2 Assay for p53 Activation (AID 2282923);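 also: average cellular p53 protein immunofluorescence intensity in HepG2 cells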
- Measurement Conditions: high-content imaging, actives raise or lower the signal
The source made the active and inactive calls. The calls were made as follows: active = hit-call score of the fitted dose curve at least 0.9, where 1 is the maximum; inactive = score below 0.9.
Classes to choose from: active, inactive

Would you please look over these solved cases?
Molecule | Class Label
O=C1CCCCCN1 | inactive
Cn1c(=O)cc(Oc2ccc(F)cc2F)c2cnc(NCC(C)(C)O)nc21 | inactive

Status in this test for CC(C)=CCCC(C)CCO (centres undefined) ?
inactive

Same read-out for Nc1ccc(Nc2ccccc2)cc1 ?
active

Item: C[C@](N)(Cc1ccc(O)c(O)c1)C(=O)O
inactive

Moving on to the next molecule: CC(C)CCO
inactive

Next molecule: Nc1nc2ncc(CNc3ccc(C(=O)N[C@@H](CCC(=O)O)C(=O)O)cc3)nc2c(=O)[nH]1
inactive

Follow-up item: CC(C)=CCC/C(C)=C/CO
active

One more molecule: CC(C)CCCCCCOC(=O)c1ccc(C(=O)OCCCCCCC(C)C)c(C(=O)OCCCCCCC(C)C)c1
inactive

Note, next up: O=c1n(CC2CO2)c(=O)n(CC2CO2)c(=O)n1CC1CO1 (centres undefined)
active

Queued: O=C(O)c1cccc(N(Cc2cccnc2)c2ccc(OC(F)F)c(OC(F)F)c2)c1
active

How about CCCCCCCCO ?
inactive

----------
- Study System: Heat shock factor protein 1 (Homo sapiens) (UniProt Q00613)
- Sequence (Q00613 whole entry, looked up): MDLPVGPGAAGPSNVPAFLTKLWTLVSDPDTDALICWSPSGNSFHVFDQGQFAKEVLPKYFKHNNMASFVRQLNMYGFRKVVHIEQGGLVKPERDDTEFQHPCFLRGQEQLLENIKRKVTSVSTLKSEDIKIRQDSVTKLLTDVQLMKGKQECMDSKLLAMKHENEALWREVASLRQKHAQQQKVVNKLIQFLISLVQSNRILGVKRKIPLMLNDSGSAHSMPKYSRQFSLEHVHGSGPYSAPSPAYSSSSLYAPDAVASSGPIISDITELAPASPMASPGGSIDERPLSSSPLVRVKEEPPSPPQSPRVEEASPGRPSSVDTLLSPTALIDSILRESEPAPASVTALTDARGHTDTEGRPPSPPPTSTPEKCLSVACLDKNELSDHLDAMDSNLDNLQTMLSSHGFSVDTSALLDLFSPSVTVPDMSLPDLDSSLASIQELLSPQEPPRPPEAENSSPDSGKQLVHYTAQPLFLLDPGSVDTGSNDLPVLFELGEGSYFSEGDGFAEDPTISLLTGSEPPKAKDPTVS
- Protocol Notes: ATG_HSE_CIS: Attagene CIS-FACTORIAL HepG2 Assay for human Heat Shock Transcription Factor 1 (HSE) (AID 2282953)
- Measurement Conditions: HepG2 HSE cis-reporter, Attagene RNA transcription; actives raise or lower the signal
Active and inactive are the calls of the source. The calls were made as follows: active = hit-call score of the fitted dose curve at least 0.9, where 1 is the maximum; inactive = score below 0.9.
Could you please pick one outcome from this set? active, inactive

Molecule | Study System | Class Label
CC(C)CC(C)(O)C#CC(C)(O)CC(C)C (stereo unspecified) | Heat shock factor protein 1 (Homo sapiens) (UniProt Q00613) | inactive

Read the next record carefully.
Please state the recorded outcome for this molecule: O=C1OC(=O)C2C3C=CC(C3)C12 (stereo unspecified)
inactive

----------
- Read-out: Human Leukocyte Antigen - DR isotype (HLADR), HLA-DRA (gene 3122)
- Protocol Notes: BSK_BE3C_HLADR: BioMAP Diversity Plus: BE3C Assay for Human Leukocyte Antigen - DR isotype (HLADR) Biomarker Activity (AID 2283032)
- Measurement Conditions: primary human bronchial epithelial cells; actives raise or lower the signal
Active and inactive are the calls of the source. How the source made its calls: active means hit-call score of the fitted dose curve at least 0.9, where 1 is the maximum; inactive means score below 0.9.

Smiles Data | outcome
COCCOCCOCCOC | inactive
Cc1ccc(N)cc1O | inactive
CCCCCCCCCCCCCCCO | inactive

----------
- Protocol Notes: ATG_AP_2_CIS: Attagene CIS-FACTORIAL HepG2 Assay for human Activator Protein 2 (AP-2) (AID 2282932)
- Measurement Conditions: HepG2 AP-2 cis-reporter, Attagene transcription factor profiling; actives raise or lower the signal
- Method: ATG_CIS is a cell-based, multiplexed-readout assay that uses HepG2, a human liver cell line, with measurements taken at 24 hours after chemical dosing in a 24-well plate.ATG_AP_2_CIS is one of 52 assay component(s) measured or calculated from the ATG_CIS assay. […] This assay endpoint, ATG_AP_2_CIS, was analyzed with bidirectional fitting relative to DMSO as the negative control and baseline of activity. […]
Activity calls are given as the source filed them. How the source made its calls: active means hit-call score of the fitted dose curve at least 0.9, where 1 is the maximum; inactive means score below 0.9.
Give one outcome, nothing more. List: label 1 for active, label 0 for inactive

Here are 5 compounds together with their reported answers.
Compound | Class Label
O=C1OC(=O)C2C3C=CC(C3)C12 (configuration not stated) | label 0
O=C(O)c1cccc(Oc2ccccc2)c1 | label 0
CCOC(=O)CC(CC(=O)OCC)(OC(C)=O)C(=O)OCC | label 0
CC(C)=CCC/C(C)=C\CO | label 0
CC(C)c1cccc(C(C)C)c1N1C(=O)c2ccc(O)cc2C1=O | label 0

Which outcome was assigned to O=C(O)CCN(C1(C(=O)NO)CCCC1)S(=O)(=O)c1ccc(Oc2ccc(F)cc2)cc1 in this test?
label 0

What do you get for CCCCCCCCO ?
label 0

----------
- Protocol Notes: ATG_CMV_CIS: Attagene CIS-FACTORIAL HepG2 Assay for human CMV (Internal Marker) (AID 2282928);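 also: endpoint acts as a background internal control marker rather than a target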
- Measurement Conditions: HepG2 CMV promoter reporter, transcription factor profiling; actives raise or lower the signal
Active and inactive are the calls of the source. The calls were made as follows: active = hit-call score of the fitted dose curve at least 0.9, where 1 is the maximum; inactive = score below 0.9.
Just give me one of these, please: active, inactive

Example results:
Compound | Class Label
CC[C@H]1CC[C@H](NCc2cc3c(cc2OC)[C@H]2C[C@H]2C(=O)N3C)[C@H](c2ccccc2)N1 | inactive
CC(C)=CCC/C(C)=C/CO | inactive
Clc1nc(Cl)c(Cl)c(Cl)c1Cl | inactive

I would be grateful if you could indicate the recorded call for CC(C)CCO .
inactive

And CCCN(C1CCN(C(=O)C2CCNCC2)CC1)[C@@H]1CCc2ccc(OC)cc2C1 ?
inactive

Consider next the compound COc1ccc(/C=C/S(=O)(=O)NC(=O)c2ccc(C)cc2Cl)cc1 in the same way.
inactive

And the next one, CC(=O)OCCC(C)C ?
inactive

Also CCOCCOCCOCCO , if possible.
inactive

Repeat for the following compound: CCOc1cccc(-n2cc(C(=O)N3CCN(c4cc(C(=O)O)c5ccccc5c4)CC3)nc2-c2ccc(C)cc2)c1
inactive

CC(C)CCCCCCOC(=O)c1ccc(C(=O)OCCCCCCC(C)C)c(C(=O)OCCCCCCC(C)C)c1 , same question.
inactive

How about this compound: Fc1ccccc1[C@@H](F)COC1CCC(Nc2ncnc3[nH]ncc23)CC1 (some centres not stated)
active

// query: On1ccccc1=S
inactive

----------
- Protocol Notes: APR_HepG2_P-H2AX_72hr: Apredica 72-hour HepG2 Assay for H2AX Phosphorylation (AID 2282916);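 also: phospho-histone H2A.x immunostain intensity per cell marking DNA damage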
- Measurement Conditions: imaging, actives raise or lower the signal
The source made the active and inactive calls. The calls were made as follows: active = hit-call score of the fitted dose curve at least 0.9, where 1 is the maximum; inactive = score below 0.9.
The categories you may choose from are 1 (yes) = active, 0 (no) = inactive

Smiles Data | Class Label
CC(C)CCCCCCOC(=O)c1ccc(C(=O)OCCCCCCC(C)C)c(C(=O)OCCCCCCC(C)C)c1 | 0 (no)
C1N2CN3CN1CN(C2)C3 | 0 (no)
O=P(OC(CCl)CCl)(OC(CCl)CCl)OC(CCl)CCl | 1 (yes)
CC(C)=CCC/C(C)=C\CO | 0 (no)

Here is the next item to consider.
What call does the record list for CC1=CC(=O)CC(C)(C)C1 ?
0 (no)

----------
- Read-out: Urokinase-type plasminogen activator receptor (uPAR), PLAUR (gene 5329)
- Protocol Notes: BSK_BE3C_uPAR: BioMAP Diversity Plus: BE3C Assay for Urokinase-type plasminogen activator receptor (uPAR) Biomarker Activity (AID 2283039);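 also: uPAR protein level measured by ELISA on the cells; cells exposed to compound for one day before measurement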
- Measurement Conditions: primary human bronchial epithelial cells; actives raise or lower the signal
The source made the active and inactive calls. How the source made its calls: active means hit-call score of the fitted dose curve at least 0.9, where 1 is the maximum; inactive means score below 0.9.
Output constraint: value belongs to active, inactive

Solved entries (count: 6):
Compound | Class Label
CCCCC(CC)COC(=O)CCCCCCCCC(=O)OCC(CC)CCCC (configuration not stated) | inactive
CCOCCO | inactive
Nc1ccc(Nc2ccccc2)cc1 | inactive
CC(O)CN(CCN(CC(C)O)CC(C)O)CC(C)O (configuration not stated) | inactive
C=CCCCCCCCCC(=O)O | inactive
O=C(O)CC(O)C(=O)O (configuration not stated) | inactive

Hi, sorry to bother you, what did the test record for CC(C)=CCC/C(C)=C/CO ?
inactive

Follow-up item: CCn1nc(Cc2ccccc2)cc1C1CCN(C[C@H]2C[C@H](N(C)[C@@H](C(=O)O)C(C)C)C[C@@H]2c2cccc(F)c2)CC1
inactive

Please give the result for CN(C)c1ccc(Cc2ccc(N(C)C)cc2)cc1 too.
inactive

Also need CNS(=O)(=O)c1cc(C(=O)N2CCC(CCN3C4CCC3CC(n3c(C)nc5ccccc53)C4)(c3cccc(F)c3)CC2)c(Cl)cc1F (configuration not stated) , thanks.
inactive

And the next one, CC1=CC(=O)CC(C)(C)C1 ?
inactive

Query O=C(NS(=O)(=O)/C=C/c1ccccc1)c1ccc(F)cc1Cl next
inactive

Next up: Cc1ccc(N)cc1O
inactive

Same for CCCC(=O)OCC
inactive

Entry to check: CC(C)=CCCC(C)CCO (configuration not stated)
inactive

Input O=C(O)CCN(C1(C(=O)NO)CCCC1)S(=O)(=O)c1ccc(Oc2ccc(F)cc2)cc1
inactive

----------
- Read-out: Interleukin 6 Receptor (IL6R), IL6R (gene 3570)
- Protocol Notes: LTEA_HepaRG_IL6R: Life Technologies and Expression Analysis (LTEA) Assay for Interleukin 6 Receptor (IL6R) using HepaRG (AID 2283510)
- Measurement Conditions: mRNA level, 48 h; actives raise or lower the signal
- Procedure: LTEA_HepaRG is a cell based, multiplexed-readout assay that uses HepaRG, a human liver cell line, with measurements taken at 48 hours after chemical dosing on a 96-well plate.LTEA_HepaRG_IL6R is one of 102 assay component(s) measured in the LTEA HepaRG cell culture assay. It is a marker of Inflammation.Data from the assay component LTEA_HepaRG_IL6R was analyzed into 1 endpoint. […]
Activity calls are given as the source filed them. The calls were made as follows: active = hit-call score of the fitted dose curve at least 0.9, where 1 is the maximum; inactive = score below 0.9.
Parameter call: string, one of Yes (active), No (inactive)

Compound | Class Label
CCOC(=O)c1ccc(C2CCC(NC[C@H](O)COc3ccc(O)c(NS(C)(=O)=O)c3)CC2)cc1 (some centres undefined) | No
Cc1ccc(O)cc1 | No
O=C(OC[C@H]1O[C@@H](OC(=O)c2cc(O)c(O)c(OC(=O)c3cc(O)c(O)c(O)c3)c2)[C@H](OC(=O)c2cc(O)c(O)c(OC(=O)c3cc(O)c(O)c(O)c3)c2)[C@@H](OC(=O)c2cc(O)c(O)c(OC(=O)c3cc(O)c(O)c(O)c3)c2)[C@@H]1OC(=O)c1cc(O)c(O)c(OC(=O)c2cc(O)c(O)c(O)c2)c1)c1cc(O)c(O)c(OC(=O)c2cc(O)c(O)c(O)c2)c1 | Yes

// next entry
What did this assay record as the result for Oc1ccc2c(c1)-c1ccccc1C2 ?
No
